Tested on: SK-MEL-5 melanoma
Test: NCI tumour cell line growth inhibition, 48 h
Reported TGI is given for each of the following molecules.

O=C1Nc2ccccc2NC1C1OC(c2ccccc2)=CC1=O (stereo not given) ... > 100 µM
COc1cc2c3c(cc(Cl)nc3c1OC)C(O)(CC(C)=O)C(=O)N2 (stereo not given) ... > 56 µM

Quick one: TGI for N=C(N)n1[nH]c2c(c1=O)CCC2 ?
> 100 µM

Follow-up entry: N#Cc1cc2cc3c4c(c2oc1=O)CCCN4CCC3
> 100 µM

Proceed to Cc1c(N2C(=O)/C(=C\c3ccc(O)cc3)N=C2c2ccccc2)c(=O)n(-c2ccccc2)n1C
> 100 µM

What do you have for CC(=O)NC1C(OCc2ccccc2)OC(CO)C(O)C1OCC(=O)NC(C)C(=O)NC(CCC(=O)NCCCCCC(=O)Nc1ccc2c(c1)CN1C(=O)c3ccccc3C1=N2)C(N)=O (stereo not given) ?
> 100 µM

Entry to check: CCOC(=O)c1c(-c2[nH]c(C(=O)OCc3ccccc3)c(C)c2C(=O)OCC)[nH]c(C(=O)OCc2ccccc2)c1C
> 100 µM

Moving on to the next molecule: C=CCN1CC2CN=NC2(C#N)C1 (stereo not given)
> 100 µM

Queued: CC(C)[C@@H](C(=O)O[C@@H]1/C=C/C(=O)O[C@@H](C)CCC/C=C/[C@@H]2C[C@H](O)C[C@H]21)[N+](C)(C)C
> 100 µM

Can you handle CNC1=C(C)C(=O)C(C)=C(C(C)(C)CC(=O)n2cc(F)c(=O)[nH]c2=O)C1=O next?
> 100 µM

Param item: CC(C)(C)OC(=O)NC(CCCCNC(=O)OCc1ccccc1)C(=O)NC(CCCCNC(=O)OCc1ccccc1)C(=O)ON1C(=O)CCC1=O (stereo not given)
> 100 µM

Thanks! And O=C(CCc1cc(O)cc(O)c1)NCCc1ccc(O)c(O)c1 ?
> 100 µM

And the next one, O=C1c2c(c3c4ccccc4n4c3c3c2c2ccccc2n3C/C=C\C4)C(=O)N1Cc1ccccc1 ?
> 100 µM

Consider next the molecule CCCCCC(/C=C/[C@@H]1CC(=O)C[C@H]1O[Si](C)(C)C(C)(C)C)OCOCCOC (stereo not given in full) in the same way.
9.33 µM

Also CCN(CC)C(=S)SNCCc1ccc(S(N)(=O)=O)cc1 , if possible.
24.4 µM

Can you handle O=C1c2ccccc2C2(c3ccc(Cl)cc3)NCc3ccccc3CN12 (stereo not given) next?
29.5 µM

Source: PubChem BioAssay (NCI)
